Tested on: SEM cells
Assay: cell viability relative to DMSO control; higher = less cytotoxic
Settings: HPLM + 10% dialyzed FBS; 48 h; 0.00234 µM
Consider the following compounds; for each one, report its cell viability.
Give bare numbers, in %.

Study these solved cases before continuing.
COC1=CC=CC=C1C2=CC=CC(=C2)C/3=C(O)/C4=CC(=C(Cl)C=C4NC3=O)C#N | 92.5
CC1(C)CC(=O)c2c(C(F)(F)F)nn(-c3ccc(C(N)=O)c(NC4CCC(O)CC4)c3)c2C1 (stereo not drawn) | 84.7
NC1(Cc2ccc(Cl)cc2)CCN(c2ncnc3[nH]ccc23)CC1 | 106
C[C@]\12CC[C@H](O)CC1=C/CC3C2CC[C@@]\4(C)C3C\C=C4[N]5C=NC6=C5C=CC=C6 (stereo partly drawn) | 82.4
COc1ccc(-c2cc3nccn3c(Nc3ncccc3C(N)=O)n2)cc1OC | 92.1

Report cell viability for each item below.
1. OC1=C(O)C2=C(\C=C/C(=O)O2)C=C1
2. CC1(C)CCC[C@]2(C)[C@H]3CC(=O)O[C@]3(C)CC[C@@H]12

### Response
1: 94.1; 2: 103

Report cell viability for each item below.
1. CC(=O)Oc1ccccc1C(=O)O
2. FC(F)(F)c1ccc(/C=C/c2nc(COc3ccc(CCCCn4ccnn4)cc3)co2)cc1
3. CC1CCC(C(=O)N(c2cc(C#CC(C)(C)C)sc2C(=O)O)C2CCC(O)CC2)CC1 (stereo not drawn)

### Response
1: 99.4; 2: 119; 3: 109

Report cell viability for each item below.
1. CC(=O)O[C@H]1C(=O)[C@]2(C)[C@@H](O)C[C@H]3OC[C@@]3(OC(C)=O)C2[C@H](OC(=O)C4=CC=CC=C4)[C@]5(O)C[C@H](OC(=O)[C@H](O)[C@@H](NC(=O)C6=CC=CC=C6)C7=CC=CC=C7)\C(=C1/C5(C)C)C (stereo partly drawn)
2. C[C@](O)(COc1ccc(C#N)cc1)C(=O)Nc1ccc(C#N)c(C(F)(F)F)c1
3. CC1=CC=CC=C1N2\C(=N/C3=C(C(=CC=C3)C)C2=O)C[N]4C=NC5=C4N=CN=C5N
4. COc1cccc2cc(-c3nc(C4CCC(C(=O)O)CC4)n4ncnc(N)c34)[nH]c12 (stereo not drawn)
5. CC1=C(/C=C/C(C)=C/C=C/C(C)=C/C=C/C=C(C)/C=C/C=C(C)/C=C/C2=C(C)CCCC2(C)C)C(C)(C)CCC1
6. CC(=O)N(C)c1cccc(-c2ccnc3c(C(=O)c4cccs4)cnn23)c1

### Response
[50, 77, 110, 132, 101, 88.7]

###

Consider the following molecules; for each one, report its cell viability.
System: NOMO1
Test: cell viability relative to DMSO control; higher = less cytotoxic
Conditions: RPMI 5 mM glucose + 10% dialyzed FBS; 48 h; 0.0632 µM
Answers are plain numbers, in %.

CC(=O)O[C@H]1C(=O)[C@]2(C)[C@@H](O)C[C@H]3OC[C@@]3(OC(C)=O)C2[C@H](OC(=O)C4=CC=CC=C4)[C@]5(O)C[C@H](OC(=O)[C@H](O)[C@@H](NC(=O)C6=CC=CC=C6)C7=CC=CC=C7)\C(=C1/C5(C)C)C (stereo partly drawn) | 24.8

Report cell viability for each item below.
1. OC[C@H]1O[C@@H](O[C@@H]2[C@@H](CO)O[C@](O)(CO)[C@H]2O)[C@H](O)[C@@H](O)[C@H]1O
2. COC1=CC=CC=C1C2=CC=CC(=C2)C/3=C(O)/C4=CC(=C(Cl)C=C4NC3=O)C#N
3. COC1=C(N2CCNC(C)C2)C(=CC3=C1N(\C=C(C(O)=O)/C3=O)C4CC4)F (stereo not drawn)

### Response
1. 95.7
2. 96.4
3. 100

These data points were gathered from the supplement of paper PMC11451515.
